# experimental-target: Avi-KRAS G12C (2-169) GTP/RAF1 RBD-3xFLAG (51-131) (Homo sapiens, UniProt P01116, G12C)
# Construct: Avi-KRAS G12C (2-169)
# Sequence (P01116 2-169 isoform P01116-2 G12C): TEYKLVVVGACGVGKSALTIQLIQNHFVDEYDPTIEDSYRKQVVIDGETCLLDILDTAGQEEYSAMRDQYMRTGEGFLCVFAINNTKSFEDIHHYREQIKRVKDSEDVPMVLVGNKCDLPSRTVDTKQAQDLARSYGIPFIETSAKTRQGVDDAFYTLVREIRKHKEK
# assay-explanation: Raf1-KRAS G12C-GTP disruption HTRF assay (Biological Example 3)
# Assay type: binding
# stated-conditions: KRAS G12C, GTP-loaded
pIC50: −log10 of the molar value.
measured-property: pIC50

As a guide, the following entries are already answered.
compound	pIC50
CCN(c1nc(OC[C@@]23CCCN2C[C@H](F)C3)nc2c(F)c(-c3ccc(F)c4sc(N)c(C#N)c34)c(C(F)(F)F)cc12)[C@H]1C[C@H](C)N(C(=O)[C@@H]2C[C@H]2F)C1 (atropisomer, axis not shown; (aS))	6.00 to 7.00
CN(Cc1cocn1)c1nc(OC[C@@]23CCCN2C[C@H](F)C3)nc2c(F)c(-c3ccc(F)c4sc(N)c(C#N)c34)c(C(F)(F)F)cc12 (atropisomer, axis not shown)	6.00 to 7.00
CCN(c1nc(OC[C@@]23CCCN2C[C@H](F)C3)nc2c(F)c(-c3ccc(F)c4sc(N)c(C#N)c34)c(C(F)(F)F)cc12)[C@@H]1C=C[C@H](C(=O)N(C)C)C1 (atropisomer, axis not shown)	5.00 to 6.00
CCN(c1nc(OC[C@@]23CCCN2C[C@H](F)C3)nc2c(F)c(-c3ccc(F)c4sc(N)c(C#N)c34)c(C(F)(F)F)cc12)[C@H]1C[C@@H]2COCC(=O)N2C1 (atropisomer, axis not shown)	6.00 to 7.00

Prompt: For Avi-KRAS G12C (2-169) GTP/RAF1 RBD-3xFLAG (51-131) (Homo sapiens, UniProt P01116, G12C), give the measured pIC50 of the entry CCN(c1nc(OC[C@@]23CCCN2C[C@H](F)C3)nc2c(F)c(-c3ccc(F)c4sc(N)c(C#N)c34)c(C(F)(F)F)cc12)[C@H]1CC[C@H](C(=O)N(C)C)C1 (atropisomer, axis not shown)
Response: 5.00 to 6.00

Prompt: For Avi-KRAS G12C (2-169) GTP/RAF1 RBD-3xFLAG (51-131) (Homo sapiens, UniProt P01116, G12C), give the measured pIC50 of the entry CCN(c1nc(OC[C@@]23CCCN2C[C@H](F)C3)nc2c(F)c(-c3ccc(F)c4sc(N)c(C#N)c34)c(C(F)(F)F)cc12)[C@@H]1CO[C@H]2OCC[C@H]21 (atropisomer, axis not shown)
Response: 6.00 to 7.00

Prompt: For Avi-KRAS G12C (2-169) GTP/RAF1 RBD-3xFLAG (51-131) (Homo sapiens, UniProt P01116, G12C), give the measured pIC50 of the entry CCN(c1nc(OC[C@@]23CCCN2C[C@H](F)C3)nc2c(F)c(-c3ccc(F)c4sc(N)c(C#N)c34)c(C(F)(F)F)cc12)[C@H]1CCN(C(=O)C2C[C@@H]2F)C1 (stereo partly drawn)
Response: ≥ 7.00

Prompt: For Avi-KRAS G12C (2-169) GTP/RAF1 RBD-3xFLAG (51-131) (Homo sapiens, UniProt P01116, G12C), give the measured pIC50 of the entry CCN(c1nc(OC[C@@]23CCCN2C[C@H](F)C3)nc2c(F)c(-c3ccc(F)c4sc(N)c(C#N)c34)c(C(F)(F)F)cc12)[C@H]1CCN(C(=O)c2ncc(Cl)s2)C1 (atropisomer, axis not shown)
Response: 5.00 to 6.00

Prompt: For Avi-KRAS G12C (2-169) GTP/RAF1 RBD-3xFLAG (51-131) (Homo sapiens, UniProt P01116, G12C), give the measured pIC50 of the entry CCN(c1nc(OC[C@@]23CCCN2C[C@H](F)C3)nc2c(F)c(-c3ccc(F)c4sc(N)c(C#N)c34)c(C(F)(F)F)cc12)[C@H]1CCN(C(=O)c2ccns2)C1 (atropisomer, axis not shown)
Response: 6.00 to 7.00

* * *

# experimental-target: Avi-KRAS G12R (1-169) GppNHp/RAF1 RBD-3xFLAG (52-151) (Homo sapiens, UniProt P01116, G12R)
# Construct: Avi-KRAS G12R (1-169)
# Sequence (P01116 1-169 isoform P01116-2 G12R): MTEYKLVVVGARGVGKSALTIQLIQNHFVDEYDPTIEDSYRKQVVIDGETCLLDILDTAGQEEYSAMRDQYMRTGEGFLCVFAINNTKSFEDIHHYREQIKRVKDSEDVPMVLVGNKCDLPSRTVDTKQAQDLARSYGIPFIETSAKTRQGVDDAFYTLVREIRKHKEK
# assay-explanation: Raf1-KRAS G12R-GppNHP disruption HTRF assay (Biological Example 1)
# Format: binding
# stated-conditions: KRAS G12R, GppNHp-loaded; Table 11
measured-property: IC50

As a guide, the following entries are already answered.
molecule	IC50
N#Cc1c(N)sc2c(F)ccc(-c3c(C(F)(F)F)cc4c(N5CCOC6CC65)nc(OC[C@@]56CCCN5C[C@H](F)C6)nc4c3F)c12 (stereo partly drawn)	100 to 1000 nM
N#Cc1c(N)sc2c(F)ccc(-c3c(C(F)(F)F)cc4c(N5CC6CC(C5)O6)nc(OC[C@@]56CCCN5C[C@H](F)C6)nc4c3F)c12 (single isomer, unassigned) [Compound 276]	1000 to 10000 nM
CN(C)C(=O)c1cc2n(n1)CCCN(c1nc(OC[C@@]34CCCN3C[C@H](F)C4)nc3c(F)c(-c4ccc(F)c5sc(N)c(C#N)c45)c(C(F)(F)F)cc13)C2	100 to 1000 nM
CN(c1nc(OC[C@@]23CCCN2C[C@H](F)C3)nc2c(F)c(-c3ccc(F)c4sc(N)c(C#N)c34)c(C#N)cc12)[C@H]1C[C@@H](O)C1	100 to 1000 nM

Prompt: Report measured IC50; entry is `C[C@H]1CCN1c1nc(OC[C@@]23CCCN2C[C@H](F)C3)nc2c(F)c(-c3ccc(F)c4sc(N)c(C#N)c34)c(C(F)(F)F)cc12`
Response: 100 to 1000 nM

Prompt: Report measured IC50; entry is `CN(CC(F)(F)F)c1nc(OC[C@@]23CCCN2C[C@H](F)C3)nc2c(F)c(-c3ccc(F)c4sc(N)c(C#N)c34)c(C(F)(F)F)cc12`
Response: 100 to 1000 nM

* * *

# experimental-target: Avi-KRAS G12D (1-169) GppNHp/RAF1 RBD-3xFLAG (52-151) (Homo sapiens, UniProt P01116, G12D)
# Construct: Avi-KRAS G12D (1-169)
# Sequence (P01116 1-169 isoform P01116-2 G12D): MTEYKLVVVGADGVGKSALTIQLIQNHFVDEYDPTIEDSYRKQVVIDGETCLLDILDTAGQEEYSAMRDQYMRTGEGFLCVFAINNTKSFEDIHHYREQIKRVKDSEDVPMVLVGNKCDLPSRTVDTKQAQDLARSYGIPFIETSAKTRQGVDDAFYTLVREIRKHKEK
# assay-explanation: Raf1-KRAS G12D-GppNHP disruption HTRF assay (Biological Example 1)
# Format: binding
# stated-conditions: KRAS G12D, GppNHp-loaded; Table 11
pIC50: −log10 of the molar value.
Recorded pIC50 for the following compounds

compound	reported-value
CN(c1nc(OC[C@@]23CCCN2C[C@H](F)C3)nc2c(F)c(-c3ccc(F)c4sc(N)c(C#N)c34)c(C(F)(F)F)cc12)[C@@H]1CCS(=O)(=O)C1 [Compound 93]	6.00 to 7.00

Prompt: Report measured pIC50; entry is CN(c1nc(OC[C@@]23CCCN2C[C@H](F)C3)nc2cc(-c3ccc(F)c4sc(N)c(C#N)c34)c(C#N)cc12)[C@H]1C[C@@H](O)C1 [Compound 29]
Response: 5.00 to 6.00

Prompt: Report measured pIC50; entry is N#Cc1c(N)sc2c(F)ccc(-c3c(C(F)(F)F)cc4c(N5CC[C@H](CO)C5)nc(OC[C@@]56CCCN5C[C@H](F)C6)nc4c3F)c12 [Compound 123]
Response: 6.00 to 7.00

Prompt: Report measured pIC50; entry is N#Cc1c(N)sc2c(F)ccc(-c3c(C(F)(F)F)cc4c(N5C[C@@H](F)[C@@H](F)C5)nc(OC[C@@]56CCCN5C[C@H](F)C6)nc4c3F)c12 [Compound 157]
Response: 6.00 to 7.00

Prompt: Report measured pIC50; entry is N#Cc1c(N)sc2c(F)ccc(-c3c(C(F)(F)F)cc4c(N5CCCCC5)nc(OC[C@@]56CCCN5C[C@H](F)C6)nc4c3F)c12 [Compound 203]
Response: 6.00 to 7.00

* * *

# experimental-target: Avi-KRAS G12V (2-169) GTP/RAF1 RBD-3xFLAG (51-131) (Homo sapiens, UniProt P01116, G12V)
# Construct: Avi-KRAS G12V (2-169)
# Sequence (P01116 2-169 isoform P01116-2 G12V): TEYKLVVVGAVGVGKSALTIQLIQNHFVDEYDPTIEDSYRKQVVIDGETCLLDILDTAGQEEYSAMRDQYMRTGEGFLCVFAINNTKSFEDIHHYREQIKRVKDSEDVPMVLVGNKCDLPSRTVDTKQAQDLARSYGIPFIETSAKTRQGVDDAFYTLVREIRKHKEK
# assay-explanation: Raf1-KRAS G12V-GTP disruption HTRF assay (Biological Example 3)
# Format: binding
# stated-conditions: KRAS G12V, GTP-loaded
pIC50: −log10 of the molar value.
measured-property: pIC50

compound	pIC50
CCN(c1nc(OC[C@@]23CCCN2C[C@H](F)C3)nc2c(F)c(-c3ccc(F)c4sc(N)c(C#N)c34)c(C(F)(F)F)cc12)[C@@H]1CC[C@H](C(=O)N(C)C)C1	5.00 to 6.00
CN(Cc1ccncc1)c1nc(OC[C@@]23CCCN2C[C@H](F)C3)nc2c(F)c(-c3ccc(F)c4sc(N)c(C#N)c34)c(C(F)(F)F)cc12 (atropisomer, axis not shown)	5.00 to 6.00
CCN(c1nc(OC[C@@]23CCCN2C[C@H](F)C3)nc2c(F)c(-c3ccc(F)c4sc(N)c(C#N)c34)c(C(F)(F)F)cc12)[C@H]1C[C@@H](C)N(C(=O)OC2CC(OC)C2)C1 (some centres unmarked)	6.00 to 7.00

Prompt: Report measured pIC50; entry is CCN(c1nc(OC[C@@]23CCCN2C[C@H](F)C3)nc2c(F)c(-c3ccc(F)c4sc(N)c(C#N)c34)c(C(F)(F)F)cc12)[C@H]1C[C@@H]2CCCC(=O)N2C1 (atropisomer, axis not shown)
Response: 5.00 to 6.00

Prompt: Report measured pIC50; entry is CCN(c1nc(OC[C@@]23CCCN2C[C@H](F)C3)nc2c(F)c(-c3ccc(F)c4sc(N)c(C#N)c34)c(C(F)(F)F)cc12)[C@H]1C[C@H]2COC(=O)N2C1 (atropisomer, axis not shown; (aS))
Response: ≥ 7.00

Prompt: Report measured pIC50; entry is CCC(=O)N1CC[C@@H](N(C)c2nc(OC[C@@]34CCCN3C[C@H](F)C4)nc3c(F)c(-c4ccc(F)c5sc(N)c(C#N)c45)c(C(F)(F)F)cc23)[C@H]1C (atropisomer, axis not shown)
Response: 6.00 to 7.00

Prompt: Report measured pIC50; entry is CCN(c1nc(OC[C@@]23CCCN2C[C@H](F)C3)nc2c(F)c(-c3ccc(F)c4sc(N)c(C#N)c34)c(C(F)(F)F)cc12)[C@H]1C[C@H](C)N(C(=O)c2cocn2)C1 (atropisomer, axis not shown)
Response: ≥ 7.00

Prompt: Report measured pIC50; entry is CCN(c1nc(OC[C@@]23CCCN2C[C@H](F)C3)nc2c(F)c(-c3ccc(F)c4sc(N)c(C#N)c34)c(C(F)(F)F)cc12)[C@H]1CC[C@@](C)(C(=O)N(C)C)C1 (atropisomer, axis not shown)
Response: 5.00 to 6.00
